Recorded IC50 for the following molecules
# Target system: P. aeruginosa PPK2B (Pseudomonas aeruginosa)
# Construct: MBP (N, cleaved yes); His tag (N, cleaved yes); made in house; host or cells: E. coli BL21(DE3)
# Sequence (Q9I154 whole entry): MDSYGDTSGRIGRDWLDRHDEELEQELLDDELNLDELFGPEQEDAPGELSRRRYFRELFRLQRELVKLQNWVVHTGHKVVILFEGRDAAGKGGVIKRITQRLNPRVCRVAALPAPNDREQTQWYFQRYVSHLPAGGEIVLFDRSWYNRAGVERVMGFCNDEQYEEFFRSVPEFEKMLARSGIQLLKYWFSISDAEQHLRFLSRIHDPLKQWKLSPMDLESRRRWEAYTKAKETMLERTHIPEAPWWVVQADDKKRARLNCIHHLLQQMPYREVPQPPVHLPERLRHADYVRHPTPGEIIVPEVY
# Assay name: PPK2B polyP synthesis from ATP, toluidine blue detection
# Format: biochemical
# Experimental context: polyP synthesis from ATP; 275 nM enzyme; read-out: IC50 PPK2B
Experimental readout: IC50 (µM)

                                   molecule  experimental_readout  operator  readout_number
0  COc1ccc2c(c1OC)c(=O)oc1c(OC)c(O)ccc12 [RT1]                  IC50         >             500
1  O=c1oc2c(O)c(O)c(O)c3c(=O)oc4c(O)c(O)cc1c4c23 [RT2]                  IC50         =              59
2  O=c1oc2c(O)c(O)cc3c(=O)oc4c(O)c(O)cc1c4c23 [RT3 (ellagic acid)]                  IC50         =              48
3  O=C1OC2(c3ccccc31)c1ccc(O)c(O)c1Oc1c2ccc(O)c1O [RT4 (gallein), gallein]                  IC50         =              20

---

# Target system: P. aeruginosa PPK2C (Pseudomonas aeruginosa, UniProt Q9HYF1)
# Construct: MBP (N, cleaved yes); His tag (N, cleaved yes); made in house; host or cells: E. coli BL21(DE3)
# Sequence (Q9HYF1 whole entry): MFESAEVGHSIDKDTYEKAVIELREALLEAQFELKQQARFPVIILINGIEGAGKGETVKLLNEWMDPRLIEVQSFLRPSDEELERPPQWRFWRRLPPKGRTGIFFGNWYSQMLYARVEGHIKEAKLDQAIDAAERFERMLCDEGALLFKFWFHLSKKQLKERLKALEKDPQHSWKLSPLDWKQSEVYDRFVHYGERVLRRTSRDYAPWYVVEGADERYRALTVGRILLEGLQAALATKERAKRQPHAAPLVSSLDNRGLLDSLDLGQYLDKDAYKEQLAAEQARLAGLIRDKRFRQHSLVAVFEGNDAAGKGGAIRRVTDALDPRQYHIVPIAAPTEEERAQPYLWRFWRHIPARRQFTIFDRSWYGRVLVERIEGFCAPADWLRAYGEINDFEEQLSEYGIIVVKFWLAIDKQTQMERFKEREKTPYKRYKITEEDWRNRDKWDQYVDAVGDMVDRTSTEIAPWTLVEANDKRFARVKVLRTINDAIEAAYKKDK
# Assay name: PPK2C AMP phosphorylation by polyP (ADP synthesis), toluidine blue detection
# Assay type: biochemical
# Experimental context: Data Set S1, sheet Risen compounds; read-out: PA PPK2C IC50
pIC50: −log10 of the molar value.
Recorded pIC50 for the following compounds
Experimental readout: pIC50

                                   compound  result
0  O=c1oc2c(O)c(O)c(O)c3c(=O)oc4c(O)c(O)cc1c4c23 [RT2]  < 3.30
1  O=c1oc2c(O)c(O)cc3c(=O)oc4c(O)c(O)cc1c4c23 [RT3 (ellagic acid)]  < 3.30
2  COc1ccc2c(c1OC)c(=O)oc1c(OC)c(O)ccc12 [RT1]  < 3.30

---

Recorded IC50 for the following molecules
# Target system: P. aeruginosa PPK2A (Pseudomonas aeruginosa, UniProt Q9I6Z1)
# Construct: residues P9 to P289; MBP (N, cleaved yes); His tag (N, cleaved yes); made in house; host or cells: E. coli BL21(DE3)
# Sequence (Q9I6Z1 68-348): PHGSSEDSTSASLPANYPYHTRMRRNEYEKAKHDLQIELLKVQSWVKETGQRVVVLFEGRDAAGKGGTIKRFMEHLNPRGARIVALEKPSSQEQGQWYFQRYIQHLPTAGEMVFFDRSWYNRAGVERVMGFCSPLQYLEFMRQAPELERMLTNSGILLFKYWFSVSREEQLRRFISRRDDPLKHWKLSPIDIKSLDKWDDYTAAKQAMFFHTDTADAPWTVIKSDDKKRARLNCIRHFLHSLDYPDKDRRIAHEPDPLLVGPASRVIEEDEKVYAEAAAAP
# Assay name: PPK2A ADP phosphorylation by polyP (ATP synthesis), toluidine blue detection
# Type: biochemical
# Experimental context: ATP synthesis from ADP and polyP; 275 nM enzyme; read-out: IC50 PPK2A
# Procedure: All IC50 and kinetic assay mixtures contained equimolar amounts (275 nM) of PPK to ensure valid comparison between different enzymes. PolyP synthesis activity (for PPK1 and PPK2B) was assayed using the reaction buffer and conditions described above. ATP concentration was varied as indicated for kinetic experiments. Curves were fit using GraphPad Prism V9. […]
Experimental readout: IC50 (µM)

In [3]: df
Out[3]:
                                   molecule                             target_system  uom  operator  readout_number
0  O=C1OC2(c3ccccc31)c1ccc(O)c(O)c1Oc1c2ccc(O)c1O  P. aeruginosa PPK2A (Pseudomonas aeruginosa, UniProt Q9I6Z1)   µM         =              16
1  O=c1oc2c(O)c(O)cc3c(=O)oc4c(O)c(O)cc1c4c23 [RT3 (ellagic acid)]  P. aeruginosa PPK2A (Pseudomonas aeruginosa, UniProt Q9I6Z1)   µM         =              50
2  O=c1oc2c(O)c(O)c(O)c3c(=O)oc4c(O)c(O)cc1c4c23  P. aeruginosa PPK2A (Pseudomonas aeruginosa, UniProt Q9I6Z1)   µM         >             500
3     COc1ccc2c(c1OC)c(=O)oc1c(OC)c(O)ccc12  P. aeruginosa PPK2A (Pseudomonas aeruginosa, UniProt Q9I6Z1)   µM         >             500

---

# Target system: P. aeruginosa PPK2C (Pseudomonas aeruginosa)
# Construct: MBP (N, cleaved yes); His tag (N, cleaved yes); made in house; host or cells: E. coli BL21(DE3)
# Assay name: PPK2C AMP phosphorylation by polyP (ADP synthesis), toluidine blue detection
# Format: biochemical
# Experimental context: ADP synthesis from AMP and polyP; 275 nM enzyme; read-out: IC50 PPK2C
Experimental readout: IC50

>>> print(df.to_string())
                                   compound    result
0  COc1ccc2c(c1OC)c(=O)oc1c(OC)c(O)ccc12 [RT1]  > 500 µM
1  O=c1oc2c(O)c(O)c(O)c3c(=O)oc4c(O)c(O)cc1c4c23 [RT2]  > 500 µM
2  O=C1OC2(c3ccccc31)c1ccc(O)c(O)c1Oc1c2ccc(O)c1O [RT4 (gallein), gallein]    165 µM
3  O=c1oc2c(O)c(O)cc3c(=O)oc4c(O)c(O)cc1c4c23 [RT3 (ellagic acid)]  > 500 µM

---

# Target system: P. aeruginosa PPK2B (Pseudomonas aeruginosa)
# Construct: MBP (N, cleaved yes); His tag (N, cleaved yes); made in house; host or cells: E. coli BL21(DE3)
# Assay name: PPK2B polyP synthesis from ATP, toluidine blue detection
# Assay type: biochemical
# Experimental context: Data Set S1, sheet Risen compounds; read-out: PA PPK2B IC50
pIC50: −log10 of the molar value.
Experimental readout: pIC50

In [3]: df
Out[3]:
                        substance_smiles                             target_system  result
0  COc1ccc2c(c1OC)c(=O)oc1c(OC)c(O)ccc12  P. aeruginosa PPK2B (Pseudomonas aeruginosa)  < 3.30

---

# Target system: P. aeruginosa PPK2A (Pseudomonas aeruginosa, UniProt Q9I6Z1)
# Construct: residues P9 to P289; MBP (N, cleaved yes); His tag (N, cleaved yes); made in house; host or cells: E. coli BL21(DE3)
# Assay name: PPK2A ADP phosphorylation by polyP (ATP synthesis), toluidine blue detection
# Format: biochemical
# Experimental context: Data Set S1, sheet Risen compounds; read-out: PA PPK2A IC50
pIC50: −log10 of the molar value.
Experimental readout: pIC50

>>> df
                           substance_smiles                             target_system  result
0     COc1ccc2c(c1OC)c(=O)oc1c(OC)c(O)ccc12  P. aeruginosa PPK2A (Pseudomonas aeruginosa, UniProt Q9I6Z1)  < 3.30
1  O=c1oc2c(O)c(O)c(O)c3c(=O)oc4c(O)c(O)cc1c4c23  P. aeruginosa PPK2A (Pseudomonas aeruginosa, UniProt Q9I6Z1)  < 3.30

---

# Target system: P. aeruginosa PPK1 (Pseudomonas aeruginosa, UniProt P0DP44)
# Construct: His tag (cleaved yes)
# Sequence (P0DP44 whole entry): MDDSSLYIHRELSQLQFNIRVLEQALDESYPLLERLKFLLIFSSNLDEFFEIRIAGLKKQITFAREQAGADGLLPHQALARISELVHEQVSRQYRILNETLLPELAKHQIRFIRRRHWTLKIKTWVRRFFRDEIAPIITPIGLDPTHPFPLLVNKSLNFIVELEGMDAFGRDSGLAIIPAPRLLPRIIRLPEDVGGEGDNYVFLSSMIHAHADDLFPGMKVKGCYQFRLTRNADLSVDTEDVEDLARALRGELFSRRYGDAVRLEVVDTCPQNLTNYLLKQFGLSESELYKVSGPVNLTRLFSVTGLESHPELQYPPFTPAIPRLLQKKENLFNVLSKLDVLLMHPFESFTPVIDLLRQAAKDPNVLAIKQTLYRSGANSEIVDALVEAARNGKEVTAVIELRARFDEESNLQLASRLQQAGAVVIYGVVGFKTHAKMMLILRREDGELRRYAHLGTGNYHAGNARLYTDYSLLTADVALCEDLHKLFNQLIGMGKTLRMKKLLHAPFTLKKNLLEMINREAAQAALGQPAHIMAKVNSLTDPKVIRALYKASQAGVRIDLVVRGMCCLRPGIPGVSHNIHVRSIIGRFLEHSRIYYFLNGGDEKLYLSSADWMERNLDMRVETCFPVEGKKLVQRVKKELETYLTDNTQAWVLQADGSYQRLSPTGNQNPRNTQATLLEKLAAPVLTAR
# Assay name: PPK1 polyP synthesis from ATP, toluidine blue detection
# Experimental context: polyP synthesis from ATP; 275 nM enzyme
pIC50: −log10 of the molar value.
Recorded pIC50 for the following molecules
Experimental readout: pIC50

                                   molecule  experimental_readout  readout_number
0  O=C1OC2(c3ccccc31)c1ccc(O)c(O)c1Oc1c2ccc(O)c1O                 pIC50            4.77
1  O=c1oc2c(O)c(O)c(O)c3c(=O)oc4c(O)c(O)cc1c4c23                 pIC50            4.70
2  O=c1oc2c(O)c(O)cc3c(=O)oc4c(O)c(O)cc1c4c23 [RT3 (ellagic acid)]                 pIC50            4.70
3     COc1ccc2c(c1OC)c(=O)oc1c(OC)c(O)ccc12                 pIC50            3.92
